target: hNET (Homo sapiens); construct: expressed in transfected cells; experiment: Norepinephrine (NE) uptake assay in MDCK-Net6 cells stably transfected with human hNET; assay type: cell-based; conditions: MDCK-Net6, 1 μM test compound, [3H]NE uptake
Sequence (P23975 whole entry): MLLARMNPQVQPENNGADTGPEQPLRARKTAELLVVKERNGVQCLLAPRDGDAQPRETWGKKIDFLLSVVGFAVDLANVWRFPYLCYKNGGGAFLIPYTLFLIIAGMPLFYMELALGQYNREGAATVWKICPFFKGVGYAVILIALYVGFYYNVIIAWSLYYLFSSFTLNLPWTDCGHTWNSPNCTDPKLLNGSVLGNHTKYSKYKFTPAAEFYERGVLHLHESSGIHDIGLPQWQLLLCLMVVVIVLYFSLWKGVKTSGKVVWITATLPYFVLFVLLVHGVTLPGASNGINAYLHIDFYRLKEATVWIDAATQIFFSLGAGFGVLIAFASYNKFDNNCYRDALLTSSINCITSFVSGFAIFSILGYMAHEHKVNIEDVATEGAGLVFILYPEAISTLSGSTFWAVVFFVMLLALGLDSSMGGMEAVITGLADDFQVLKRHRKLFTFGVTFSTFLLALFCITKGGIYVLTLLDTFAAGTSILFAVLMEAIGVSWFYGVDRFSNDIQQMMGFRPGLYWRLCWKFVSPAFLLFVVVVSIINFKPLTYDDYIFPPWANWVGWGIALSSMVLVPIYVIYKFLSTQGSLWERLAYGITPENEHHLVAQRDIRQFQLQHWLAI
Counter-ions that a name gives are not always drawn.
readout-kind: inhibition at 1 µM (%)

COc1ccc2cc(C(CN3CCC(N4CCCCC4)CC3)C3(O)CCCCC3)ccc2c1 (centres unmarked) [Example 346, dihydrochloride]: 81
CN(C)C1CCN(C[C@H](c2cccc(OC(F)(F)F)c2)C2(O)CCCCC2)CC1 [Example 360, dihydrochloride]: 88
CNC1CCN(C[C@H](c2cccc(OC(F)(F)F)c2)C2(O)CCCCC2)CC1 [Example 359, dihydrochloride]: 86
CN[C@H]1CCCN(CC(c2ccc(OCc3ccccc3)c(Cl)c2)C2(O)CCCCC2)C1 (some centres unmarked) [Example 195, dihydrochloride]: 92
OC1([C@H](CN2CCC(N3CCCC3)CC2)c2cccc(OC(F)(F)F)c2)CCCCC1 [Example 365, dihydrochloride]: 94
